# CONDITION_INFO: in DMSO, 303.15 K
MEASUREMENT_LABEL: solubility (mole fraction)

COMPOUND	RESULT
CCOc1ccc(C2NC(=O)NC=C2C(=O)c2cc(OC)c(OC)c(OC)c2)cc1 (stereo unspecified)	0.0065

----------
# CONDITION_INFO: in propylene glycol, 313.15 K

COMPOUND	solubility (mole fraction)
CCOc1ccc(C2NC(=O)NC=C2C(=O)c2cc(OC)c(OC)c(OC)c2)cc1 (stereo unspecified)	0.00107

----------
# CONDITION_INFO: in transcutol, 318.15 K
MEASUREMENT_LABEL: solubility (mole fraction)

COMPOUND	MEASURED_NUMBER
CCOc1ccc(C2NC(=O)NC=C2C(=O)c2cc(OC)c(OC)c(OC)c2)cc1 (stereo unspecified)	0.00624

----------
# CONDITION_INFO: in ethylene glycol, 298.15 K

MOLECULE	solubility (mole fraction)
CCOc1ccc(C2NC(=O)NC=C2C(=O)c2cc(OC)c(OC)c(OC)c2)cc1 (stereo unspecified)	0.000397

----------
# CONDITION_INFO: in propylene glycol, 303.15 K

COMPOUND	solubility (mole fraction)
CCOc1ccc(C2NC(=O)NC=C2C(=O)c2cc(OC)c(OC)c(OC)c2)cc1 (stereo unspecified)	0.000682

----------
# CONDITION_INFO: in sec-butanol, 308.15 K

MOLECULE	solubility (mole fraction)
CCOc1ccc(C2NC(=O)NC=C2C(=O)c2cc(OC)c(OC)c(OC)c2)cc1 (stereo unspecified)	0.00104

----------
# CONDITION_INFO: in PEG-400, 313.15 K

COMPOUND	solubility (mole fraction)
CCOc1ccc(C2NC(=O)NC=C2C(=O)c2cc(OC)c(OC)c(OC)c2)cc1 (stereo unspecified)	0.0103

----------
# CONDITION_INFO: in isopropanol, 303.15 K
MEASUREMENT_LABEL: solubility (mole fraction)

COMPOUND	MEASURED_NUMBER
CCOc1ccc(C2NC(=O)NC=C2C(=O)c2cc(OC)c(OC)c(OC)c2)cc1 (stereo unspecified)	0.000619

----------
# CONDITION_INFO: in ethanol, 303.15 K

COMPOUND	solubility (mole fraction)
CCOc1ccc(C2NC(=O)NC=C2C(=O)c2cc(OC)c(OC)c(OC)c2)cc1 (stereo unspecified)	0.000402

----------
# CONDITION_INFO: in propylene glycol, 308.15 K

MOLECULE	solubility (mole fraction)
CCOc1ccc(C2NC(=O)NC=C2C(=O)c2cc(OC)c(OC)c(OC)c2)cc1 (stereo unspecified)	0.00087

----------
# CONDITION_INFO: in sec-butanol, 298.15 K

COMPOUND	solubility (mole fraction)
CCOc1ccc(C2NC(=O)NC=C2C(=O)c2cc(OC)c(OC)c(OC)c2)cc1 (stereo unspecified)	0.00067

----------
# CONDITION_INFO: in transcutol, 308.15 K
MEASUREMENT_LABEL: solubility (mole fraction)

COMPOUND	MEASURED_NUMBER
CCOc1ccc(C2NC(=O)NC=C2C(=O)c2cc(OC)c(OC)c(OC)c2)cc1 (stereo unspecified)	0.00441

----------
# CONDITION_INFO: in ethylene glycol, 303.15 K

MOLECULE	solubility (mole fraction)
CCOc1ccc(C2NC(=O)NC=C2C(=O)c2cc(OC)c(OC)c(OC)c2)cc1 (stereo unspecified)	0.000543

Provenance of the data: BigSolDB 2.1
